Target: cKit(D816H)(h) (Homo sapiens, UniProt P10721, D816H)
Experiment: Kinase Profiling Assay
Format: biochemical
Settings: peptide 100 μM
No end group written: not given here.
observable: % activity (%)
Unit % implied. Number only.

residue_string	% activity / %
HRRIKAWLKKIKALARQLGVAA (Mammal) [MMI-0500]	194

Data point: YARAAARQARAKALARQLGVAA [MMI-0100] ; % activity = 79

Data point: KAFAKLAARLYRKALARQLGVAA [MMI-0400] ; % activity = 143

These data points were gathered from patent US20150258192A1.
